B1: TPR t1 (parent)
chain: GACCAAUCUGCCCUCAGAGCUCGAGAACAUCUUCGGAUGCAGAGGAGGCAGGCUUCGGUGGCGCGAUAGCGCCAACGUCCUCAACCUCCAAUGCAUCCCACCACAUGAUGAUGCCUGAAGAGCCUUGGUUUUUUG

Variants of: B1
TEST DESCRIPTION: polymerase ribozyme fitness, log enrichment relative to wild type (log ratio); higher = more active; in vitro selection for triplet polymerase activity
For each record, write down the corresponding polymerase ribozyme fitness (log ratio).
Give bare numbers.

Examples from the recorded data:
- SEQUENCE CHANGE: "C8G G44A U92A C97U"
  ENDPOINT VALUE: -2.59
- SEQUENCE CHANGE: "A50C G93U U112G"
  ENDPOINT VALUE: -2.03
- SEQUENCE CHANGE: "G51A C53G G117C G127C"
  ENDPOINT VALUE: -7.73
- SEQUENCE CHANGE: "G48C C104U"
  ENDPOINT VALUE: -0.793
- SEQUENCE CHANGE: "G39A G93A"
  ENDPOINT VALUE: -2.02

For every record below, what is its polymerase ribozyme fitness (log ratio)?
1. C12U A18C G71U U131C
2. C12A C70A C85G U116C
3. A6U C40U C56U G69C A121C
4. C15G U59G
5. G71C U133A
6. C28U U32A C70U G120C
7. G48C C49G U54C A95C G117A

output:
1. -1.9
2. -4.83
3. -6.3
4. -2.27
5. -0.636
6. -6.64
7. -2.24

For every record below, what is its polymerase ribozyme fitness (log ratio)?
1. C8G A50U C56A C79G A100G A111U
2. G45C C56G C89A
3. C3U G47A
4. U7C C56U C72U U130G
5. A29U G48C C53U

output:
[-5.8, -2.69, -0.64, -0.275, -3.4]

For every record below, what is its polymerase ribozyme fitness (log ratio)?
1. G10C C20U G48C C114A C123U
2. C11A U55G C80U C104U G113A
3. G10A C34A
4. G36U A46U G52U G120A
5. C73U A83C
6. C22U U106G C115U
7. G57U C94G

output:
1. -3.33
2. -4.77
3. -2.87
4. -2.3
5. -2.2
6. -6.69
7. -1.04
